target: Opioid receptor (Rattus norvegicus, UniProt P33533+P34975+P33535); assay: In vitro opioid receptor binding competition against 1 nM [3H]- Naltrexone in the presence of 100 mM NaCl.; type: protein assay
Examples of compounds with documented log10 of IC50 follow.
Heads up, the numbers here are log10 of IC50 in µM units.

Use these answered entries as a reference point.
Compound: C=C1CC2(CCC3(O)[C@H]4Cc5ccc(O)c6c5[C@@]3(CCN4CC3CC3)C2O6)OC1=O (stereo in doubt; 6a)
Measured On: Opioid receptor (Rattus norvegicus, UniProt P33533+P34975+P33535)
log10 of IC50: -1.82

Compound: CN1CC[C@]23c4c5ccc(O)c4OC2C2(CCC3(O)C1C5)CO2 (stereo not given in full)
Measured On: Opioid receptor (Rattus norvegicus, UniProt P33533+P34975+P33535)
log10 of IC50: -1.22

Q: State the recorded log10 of IC50 for this entry: Oc1ccc2c3c1OC1C4(CCC5(O)[C@@H](C2)N(CC2CC2)CC[C@]315)CO4 (stereo in doubt; 13a)
Result: -2.47

Q: State the recorded log10 of IC50 for this entry: CCOC(=O)[C@H]1OC12CCC1(O)[C@H]3Cc4ccc(O)c5c4[C@@]1(CCN3CC1CC1)C2O5 (stereo not given in full)
Result: -2.46

Q: State the recorded log10 of IC50 for this entry: CC1CC2(CCC3(O)C4Cc5ccc(O)c6c5[C@@]3(CCN4C)C2O6)OC1=O (stereo not given in full)
Result: -0.30

---

target: Opioid receptor (Rattus norvegicus, UniProt P33533+P34975+P33535); experiment: In vitro opioid receptor binding competition against 1 nM [3H]- Naltrexone in the absence of NaCl.; format: protein assay
Examples of compounds with documented log10 of IC50 follow.
Heads up, the numbers here are log10 of IC50 in nM units.

Use these answered entries as a reference point.
Compound: C=C1CC2(CCC3(O)[C@H]4Cc5ccc(O)c6c5[C@@]3(CCN4CC3CC3)C2O6)OC1=O (stereo in doubt; 6a)
Test Readout: log10 of IC50
Experimental Value: 1.10
--
Compound: CC1=CC2(CCC3(O)[C@H]4Cc5ccc(O)c6c5[C@@]3(CCN4CC3CC3)C2O6)OC1=O (stereo partly drawn)
Test Readout: log10 of IC50
Experimental Value: 1.60
--
Compound: O=C1C=CC2(CCC3(O)[C@H]4Cc5ccc(O)c6c5[C@@]3(CCN4CC3CC3)C2O6)O1 (stereo partly drawn)
Test Readout: log10 of IC50
Experimental Value: 1.00
--
Compound: CC1CC2(CCC3(O)C4Cc5ccc(O)c6c5[C@@]3(CCN4C)C2O6)OC1=O (stereo partly drawn)
Test Readout: log10 of IC50
Experimental Value: 1.48
--
Compound: C=C1C(=O)OC2=C1CC1(O)[C@H]3Cc4ccc(O)c5c4[C@@]1(CCN3CC1CC1)C2O5 (stereo partly drawn)
Test Readout: log10 of IC50
Experimental Value: 2.00

Proceed to the following item.
Q: State the recorded log10 of IC50 for this entry: CCOC(=O)[C@@H]1OC12CCC1(O)C3Cc4ccc(O)c5c4[C@@]1(CCN3C)C2O5 (stereo partly drawn)
Result: 1.18

---

Examples of compounds with documented IC50 follow.
target: Opioid receptor (Rattus norvegicus, UniProt P33533+P34975+P33535); assay: In vitro opioid receptor binding competition against 1 nM [3H]- Naltrexone in the presence of 100 mM NaCl.; type: protein assay

Use these answered entries as a reference point.
Compound: CCOC(=O)[C@@H]1OC12CCC1(O)C3Cc4ccc(O)c5c4[C@@]1(CCN3C)C2O5 (stereo partly drawn)
Test Readout: IC50
Experimental Value: 200 nM
--
Compound: CCOC(=O)[C@H]1OC12CCC1(O)C3Cc4ccc(O)c5c4[C@@]1(CCN3C)C2O5 (stereo partly drawn)
Test Readout: IC50
Experimental Value: 1000 nM
--
Compound: C=C1CC2(CCC3(O)[C@H]4Cc5ccc(O)c6c5[C@@]3(CCN4CC3CC3)C2O6)OC1=O (stereo in doubt; 5a)
Test Readout: IC50
Experimental Value: 2 nM
--
Compound: CC1CC2(CCC3(O)[C@H]4Cc5ccc(O)c6c5[C@@]3(CCN4CC3CC3)C2O6)OC1=O (stereo partly drawn)
Test Readout: IC50
Experimental Value: 6 nM
--
Compound: C=C1CC2(CCC3(O)[C@H]4Cc5ccc(O)c6c5[C@@]3(CCN4C)C2O6)OC1=O (stereo in doubt; 5b)
Test Readout: IC50
Experimental Value: 250 nM
--
Compound: O=C1C=CC2(CCC3(O)[C@H]4Cc5ccc(O)c6c5[C@@]3(CCN4CC3CC3)C2O6)O1 (stereo partly drawn)
Test Readout: IC50
Experimental Value: 10 nM

Q: API: value(readout= IC50, system= Opioid receptor (Rattus norvegicus, UniProt P33533+P34975+P33535), query= CC1=CC2(CCC3(O)C4Cc5ccc(O)c6c5[C@@]3(CCN4C)C2O6)OC1=O (stereo partly drawn) )
Result: > 1000 nM

Q: API: value(readout= IC50, system= Opioid receptor (Rattus norvegicus, UniProt P33533+P34975+P33535), query= CC1=CC2(CCC3(O)[C@H]4Cc5ccc(O)c6c5[C@@]3(CCN4CC3CC3)C2O6)OC1=O (stereo partly drawn) )
Result: 70 nM

Values were extracted from ChEMBL document CHEMBL1123075.
